The measurements presented in this section are drawn from PubChem BioAssay (NCI).

tested on: MDA-MB-468 breast; experiment: NCI tumour cell line growth inhibition, 48 h; in the data active means GI50 below about 0.43 µM; inactive means the rest
Answer with one of the outcomes given here: active, inactive

{"columns": ["compound", "study_system", "class_assignment"],
 "data": [
  ["O=C(COc1cccc(/C=C2\\COc3ccccc3C2=O)c1)Nc1nccs1", "MDA-MB-468 breast", "inactive"],
  ["ClCCN(CCCl)c1ccc(-n2cnc3c(Cl)ncnc32)cc1", "MDA-MB-468 breast", "inactive"],
  ["CN1C(=O)CNC(=O)[C@H](NC(=O)c2nc3ccccc3cc2O)CSSC[C@H]1C(=O)NCCc1nc2ccccc2cc1O", "MDA-MB-468 breast", "inactive"],
  ["CCCCC(=O)N/N=C/c1cc(I)cc(I)c1O", "MDA-MB-468 breast", "inactive"],
  ["C#C[C@]1(O)CC[C@H]2[C@@H]3CC=C4c5sc(N=C(N)N)nc5CC[C@]4(C)[C@H]3CC[C@@]21C", "MDA-MB-468 breast", "inactive"]
]}

Prompt: // param item: "Oc1ccccc1-c1nnc(SCc2ccc(O)c3ncccc23)n1-c1ccccc1" ; yields the recorded call
Response: active

Prompt: Hi, sorry to bother you, what did the test record for CCN(CC)c1ccc2c(c1)Oc1nc(N)c(C#N)c(N)c1C2Sc1ccc(SC)cc1 (stereo unspecified) ?
Response: inactive

Prompt: Which outcome did this test record for the compound "Cn1c(=O)cc2c3c(c(NCCCO)ccc31)C(=O)c1ccccc1-2" ?
Response: inactive

Prompt: So what was the verdict on "COc1ccc2[nH]cc(-c3nc(-c4cn(C)c5ccncc45)cs3)c2c1" in this test?
Response: inactive

Prompt: Record request — test call for CCC(Sc1nnc2c3ccccc3n(CC)c2n1)C(=O)Nc1ccccc1OC (stereo unspecified)
Response: inactive

Prompt: Can you look up the reported call for "C#C[C@]1(O)CC[C@H]2[C@@H]3CC=C4c5sc(-c6ccc(F)cn6)nc5CC[C@]4(C)[C@H]3CC[C@@]21C" for me?
Response: inactive

* * *

Reported TGI values are given for each entry in this list.
system: MDA-MB-468 breast; assay: NCI tumour cell line growth inhibition, 48 h
Number only, in µM; omit the unit.

{"columns": ["compound", "units", "recorded_measurement"],
 "data": [
  ["CCC[C@H](N[C@@H]1CCc2cc(F)cc(F)c2C1)C(=O)Nc1cn(C(C)(C)CNCC(C)(C)C)cn1", "µM", 29.7]
]}

Prompt: Which TGI value belongs to CCN(CC)c1ccc2c(c1)Oc1nc(N)c(C#N)c(N)c1C2Sc1ccc(SC)cc1 (centres undefined) ?
Response: 3.64

Prompt: What TGI value was documented for this compound, "CN1CCN(c2ccc3nc(-c4cc(C(C)(C)C)c(O)c(C(C)(C)C)c4)[nH]c3c2)CC1" ?
Response: 3.76

Prompt: Reported TGI for "CS(=O)(=O)CCNCc1ccc(-c2ccc3ncnc(Nc4ccc(OCc5cccc(C(F)(F)F)c5)cc4)c3c2)o1" : what is it?
Response: 8.6

Prompt: So what does the record say about TGI for CCC(Sc1nnc2c3ccccc3n(CC)c2n1)C(=O)Nc1ccccc1OC (centres undefined) ?
Response: 4.23

Prompt: What value of TGI has been recorded for this entry: "CN(C)CCn1c2ccccc2c2nc3cc4ccccc4cc3nc21"
Response: 6.36

Prompt: What value of TGI has been reported for the following compound? "Cn1c(COC(=O)N2CCCCC2)nc2c(N3CCOCC3)nc(-c3ccccc3)nc21"
Response: 2.19
